- testedTarget: T1, RSPO1-CD4TM (human)
- T1 construct: domain: transmembrane domain; also called cell-surface RSPO1; RSPO1 transfected cells
- assayProcedure: FACS, Fc fusion on HEK 293 cells with RSPO1-CD4TM
observable: binding result

For orientation, consider the following solved cases.
{"binder": "FZD4-Fc (Fc fusion, UniProt Q9ULV1 40-170, looked up, also called FZD1-10-Fc; FZD-Fc constructs; not shown: Fc) EEERRCDPIRISMCQNLGYNVTKMPNLVGHELQTDAELQLTTFTPLIQYGCSSQLQFFLCSVYVPMCTEKINIPIGPCGGMCLSVKRRCEPVLKEFGFAWPESLNCSKFPPQNDHNHMCMEGPGDEEVPLP", "binding result": "no binding"}
{"binder": "FZD10-Fc (Fc fusion, UniProt Q9ULW2 21-154, looked up, also called soluble FZD10; FZD1-10-Fc; not shown: Fc) ISSMDMERPGDGKCQPIEIPMCKDIGYNMTRMPNLMGHENQREAAIQLHEFAPLVEYGCHGHLRFFLCSLYAPMCTEQVSTPIPACRVMCEQARLKCSPIMEQFNFKWPDSLDCRKLPNKNDPNYLCMEAPNNG", "binding result": "no binding"}
{"binder": "FZD3-Fc (Fc fusion, UniProt Q9NPG1 23-143, looked up, also called FZD1-10-Fc; FZD-Fc constructs; not shown: Fc) HSLFSCEPITLRMCQDLPYNTTFMPNLLNHYDQQTAALAMEPFHPMVNLDCSRDFRPFLCALYAPICMEYGRVTLPCRRLCQRAYSECSKLMEMFGVPWPEDMECSRFPDCDEPYPRLVDL", "binding result": "no binding"}
{"binder": "FZD9-Fc (Fc fusion, UniProt O00144 23-159, looked up, also called FZD1-10-Fc; FZD-Fc constructs; not shown: Fc) LEIGRFDPERGRGAAPCQAVEIPMCRGIGYNLTRMPNLLGHTSQGEAAAELAEFAPLVQYGCHSHLRFFLCSLYAPMCTDQVSTPIPACRPMCEQARLRCAPIMEQFNFGWPDSLDCARLPTRNDPHALCMEAPENA", "binding result": "no binding"}
{"binder": "FZD8-Fc (Fc fusion, UniProt Q9H461 28-158, looked up, also called soluble FZD8; FZD1-10-Fc; not shown: Fc) ASAKELACQEITVPLCKGIGYNYTYMPNQFNHDTQDEAGLEVHQFWPLVEIQCSPDLKFFLCSMYTPICLEDYKKPLPPCRSVCERAKAGCAPLMRQYGFAWPDRMRCDRLPEQGNPDTLCMDYNRTDLTT", "binding result": "no binding"}
{"binder": "FZD5-Fc (Fc fusion, UniProt Q13467 27-157, looked up, also called FZD1-10-Fc; FZD-Fc constructs; not shown: Fc) ASKAPVCQEITVPMCRGIGYNLTHMPNQFNHDTQDEAGLEVHQFWPLVEIQCSPDLRFFLCSMYTPICLPDYHKPLPPCRSVCERAKAGCSPLMRQYGFAWPERMSCDRLPVLGRDAEVLCMDYNRSEATT", "binding result": "no binding"}

Ask: Consider the binder shown here: FZD6-Fc (Fc fusion, UniProt O60353 19-146, looked up, also called FZD1-10-Fc; FZD-Fc constructs; not shown: Fc) HSLFTCEPITVPRCMKMAYNMTFFPNLMGHYDQSIAAVEMEHFLPLANLECSPNIETFLCKAFVPTCIEQIHVVPPCRKLCEKVYSDCKKLIDTFGIRWPEELECDRLQYCDETVPVTFDPHTEFLGP What is its recorded binding result?
Reply: no binding
